meta.source: patent US7173151B2

assayed target: GR-GAL4-humanPPARalpha-LBD (Homo sapiens)
Construct: amino acids S167–Y468
Sequence (Q07869 167-468): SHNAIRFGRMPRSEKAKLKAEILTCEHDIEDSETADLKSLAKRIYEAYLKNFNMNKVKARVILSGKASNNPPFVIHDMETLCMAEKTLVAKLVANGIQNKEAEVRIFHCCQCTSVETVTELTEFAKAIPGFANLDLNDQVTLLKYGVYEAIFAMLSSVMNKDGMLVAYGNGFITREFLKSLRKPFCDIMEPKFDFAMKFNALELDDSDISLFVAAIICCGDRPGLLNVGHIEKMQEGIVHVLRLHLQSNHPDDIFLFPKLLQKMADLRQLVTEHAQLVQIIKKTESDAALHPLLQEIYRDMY
assay summary: Cellular PPARalpha assay (luciferase reporter, stably transfected HEK cell line)
pEC50: −log10 of the molar value.
property name: pEC50

Below, 3 compounds whose answers are already recorded.
CCCCNC(=O)N(CCO[C@@H]1CCC[C@H](CCC(C)(C)C(=O)O)C1)Cc1ccc(C)cc1 (relative stereo) = 7.13
CCCCCCCN(CCO[C@@H]1CCC[C@H](CCC(C(=O)O)C(C)C)C1)C(=O)NCCCC (relative stereo) = 9.42
CCC(CCC1CCCC(OCCN(Cc2ccc(C)cc2)C(=O)NC2CCCCC2)C1)C(=O)O (racemic) = 8.96

(a) CCCCCCCN(CCO[C@@H]1CCC[C@H](CCC(CC)C(=O)O)C1)C(=O)NCCCC (relative stereo)
(b) CCCCCCCN(CCOC1CCCC(CCC(C)(C)C(=O)O)C1)C(=O)NCCCC (racemic)
I'm curious, which of these has a smaller pEC50 number: a or b ? Select an item and report its label.
b

(1) CCCCCCCN(CCO[C@@H]1CCC[C@H](CCC(CC)C(=O)O)C1)C(=O)NC1CCCCC1 (relative stereo)
(2) CCCCCCCN(CCO[C@@H]1CCC[C@H](CCC(C)(C)C(=O)O)C1)C(=O)NC1CCCCC1 (racemic)
I'm curious, which of these has a smaller pEC50 number: 1 or 2 ? Select an item and report its label.
2
